# Species on record: Rattus norvegicus
# run_description: DrugMatrix - Regimen: Daily Repeat
# Type: toxicity, organism-based, Sprague-Dawley
# Set-up: regimen Daily Repeat, gender Male, age 6-8 weeks
# condition_label: in vivo, ip, 8 mg/kg, 120 h, tissue Blood, route intraperitoneal, dose level High, time 5 day, vehicle 100 % SALINE
measure_name: ABSOLUTE SEGMENTED NEUTROPHIL (cells/µL)
Please respond with the number in cells/µL and leave the unit unwritten.

Quick one: ABSOLUTE SEGMENTED NEUTROPHIL of GOLD SODIUM THIOMALATE ?
1220

---

GLUCOSE values by entry
# Species on record: Rattus norvegicus
# run_description: DrugMatrix - Regimen: Daily Repeat
# Type: toxicity, organism-based, Sprague-Dawley
# Design: regimen Daily Repeat, gender Male, age 6-8 weeks
# condition_label: in vivo, po, 0 mg/kg, 72 h, tissue Plasma, route oral GAVAGE, dose level Control, time 3 day, vehicle 100 % WATER
Please respond with the number in mg/dL and leave the unit unwritten.

Below are worked cases with known answers.
1. CC1COc2c(N3CCN(C)CC3)c(F)cc3c(=O)c(C(=O)O)cn1c23 (stereo not given) [OFLOXACIN]: 187.5
2. COc1cccc(C2(O)CCCCC2CN(C)C)c1 (stereo not given) [TRAMADOL]: 152.67
3. CC(C)(S)[C@@H](N)C(=O)O [PENICILLAMINE]: 148

Quick one: GLUCOSE of NCC1(CC(=O)O)CCCCC1 [GABAPENTIN] ?
161.67

Quick one: GLUCOSE of Cc1cc(NS(=O)(=O)c2ccc(N)cc2)no1 [SULFAMETHOXAZOLE] ?
149.17

Quick one: GLUCOSE of Nc1ccc(S(=O)(=O)Nc2ccnn2-c2ccccc2)cc1 [SULFAPHENAZOLE] ?
168.5

Quick one: GLUCOSE of CNCCC=C1c2ccccc2CCc2ccccc21 [NORTRIPTYLINE] ?
169.33

Quick one: GLUCOSE of COc1ccc(C(CN(C)C)C2(O)CCCCC2)cc1 (stereo not given) [VENLAFAXINE] ?
149.17

Quick one: GLUCOSE of Clc1ccc(C(c2ccccc2Cl)C(Cl)Cl)cc1 (stereo not given) [MITOTANE] ?
154.5

Quick one: GLUCOSE of CC(CCc1ccccc1)NCC(O)c1ccc(O)c(C(N)=O)c1 (stereo not given) [LABETALOL] ?
143
